# target.system: intracellular arginase in macrophages isolated from murine bone marrow (BMDM) (Mus musculus, UniProt Q61176)
# Construct: endogenous in cells
# Sequence (Q61176 1-323): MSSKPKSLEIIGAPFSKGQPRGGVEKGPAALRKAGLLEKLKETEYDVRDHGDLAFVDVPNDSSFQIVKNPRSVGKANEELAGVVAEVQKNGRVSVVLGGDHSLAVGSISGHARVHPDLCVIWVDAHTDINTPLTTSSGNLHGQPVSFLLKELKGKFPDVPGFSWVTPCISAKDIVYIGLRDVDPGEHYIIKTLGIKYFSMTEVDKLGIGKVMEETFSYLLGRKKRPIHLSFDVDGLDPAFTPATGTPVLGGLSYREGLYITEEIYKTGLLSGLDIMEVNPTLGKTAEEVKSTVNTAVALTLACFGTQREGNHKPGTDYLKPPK
# assay.remarks: Cell-based assay: intracellular arginase in bone marrow derived macrophages (BMDM), urea level
# stated.conditions: murine BMDM with M-CSF and IL-4, urea measured 24 hours after compound; * = most potent diastereoisomer or mixture of diastereoisomers; read-out: Activity Class (BMDM)
pIC50: −log10 of the molar value. Where a name gives a salt, the structure may show the parent alone.
Measured pIC50 accompanies every entry in the list below.

# molecule, pIC50
measured = [
    ("NC[C@@H]1C[C@@H](CCB(O)O)CC(N)(C(=O)O)C1 (mixture of isomers) [Example 54, dihydrochloride]", "4.00 to 5.00"),
    ("CC1(O)CCC(CCB(O)O)CC1(N)C(=O)O (stereo not drawn) [Example 50, hydrochloride]", "4.00 to 5.00"),
    ("NC1CC(CCB(O)O)CC1(N)C(=O)O (stereo not drawn) [Example 62, dihydrochloride]", "4.00 to 5.00"),
    ("NC(CCCCB(O)O)(CCNCCCc1ccc(Cl)cc1Cl)C(=O)O (stereo not drawn) [Comparative example 2, reference compound]", "5.00 to 6.00"),
    ("NC1(C(=O)O)C[C@H](CCB(O)O)CCC1CCN1CCCC1 (stereo partly drawn) [Example 46, dihydrochloride]", "6.00 to 7.00"),
]

Attention now turns to another entry.
Task: Supply recorded pIC50 for "CCN(C)C[C@@H]1CC[C@@H](CCB(O)O)C[C@]1(N)C(=O)O" here.
Result: 6.00 to 7.00

Every entry's value here was drawn from patent US12053451B2.
